# PROCEDURE_DETAILS: Balb/C mouse pharmacokinetics (plasma, colon, ileum)
# Assay type: in vivo
# CONDITION_PARAMETERS: male, po, Balb/C mice, p.o. 5 mg/kg, colon, read-out: Blood concentration Cmax
I would appreciate it if you labelled entries Yes when Cmax is 2000 ng/mL or higher, otherwise No.

Please review the following examples before continuing.
[[record]]
record_smiles = "Cc1cc(Nc2nc(N[C@@H]3C[C@@H]4CN(CCC#N)C[C@@H]4C3)nc3ccsc23)n[nH]1"
category = "No"

[[record]]
record_smiles = "Cc1cc(Nc2nc(N[C@@H]3C[C@H]4CCC[C@@H](C3)N4CCC#N)nc3scnc23)n[nH]1"
category = "No"

[[record]]
record_smiles = "Cc1cc(Nc2nc(N[C@@H]3C[C@H]4CCC[C@@H](C3)N4C(=O)c3nccn3C)nc3sccc23)n[nH]1"
category = "Yes"

[[record]]
record_smiles = "Cc1cc(Nc2nc(N[C@@H]3C[C@H]4CCC[C@@H](C3)N4C(=O)c3ccncc3)nc3sccc23)n[nH]1"
category = "No"

[[record]]
record_smiles = "Cc1cc(Nc2nc(N[C@@H]3C[C@H]4CC[C@@H](C3)N4S(=O)(=O)N3CC(C#N)C3)nc3cc(Cl)ccc23)n[nH]1"
category = "Yes"

[[record]]
record_smiles = "CNCC(=O)N1[C@@H]2CCC[C@H]1C[C@H](Nc1nc(Nc3cc(C)[nH]n3)c3ccsc3n1)C2"
category = "Yes"

[[record]]
record_smiles = "Cc1cc(Nc2nc(N(C)[C@@H]3C[C@H]4CCC[C@@H](C3)N4C(=O)CN3CCN(C)CC3)nc3sccc23)n[nH]1"
category = "Yes"

[[record]]
record_smiles = "Cc1cc(Nc2nc(N[C@@H]3C[C@H]4CCC[C@@H](C3)N4S(=O)(=O)c3ccccn3)nc3sccc23)n[nH]1"
category = "No"


**Q:** Determine whether measured Cmax meets or exceeds 2000 ng/mL for Cc1cc(Nc2nc(N[C@@H]3C[C@H]4CC[C@@H](C3)N4S(=O)(=O)N3CC(C#N)C3)nc3sccc23)n[nH]1
**A:** Yes

**Q:** Do the same for Cc1cc(Nc2nc(NC3CCN(CCC#N)CC3)nc3sccc23)n[nH]1 please
**A:** No

**Q:** Do the same for Cc1cc(Nc2nc(N[C@@H]3C[C@H]4CC[C@@H](C3)N4CCC#N)nc3sc(C)cc23)n[nH]1 please
**A:** No

**Q:** Do the same for Cc1cc(Nc2nc(N[C@@H]3C[C@H]4CCC[C@@H](C3)N4C(=O)CN3CCOCC3)nc3sccc23)n[nH]1 please
**A:** Yes

**Q:** Do the same for Cc1cc(Nc2nc(N[C@@H]3C[C@H]4CCC[C@@H](C3)N4C(=O)CN3CCOCC3)nc3ccsc23)n[nH]1 please
**A:** No

**Q:** Do the same for Cc1cc(Nc2nc(N[C@@H]3C[C@H]4CC[C@@H](C3)N4C(=O)CN3CCOCC3)nc3sccc23)n[nH]1 please
**A:** No

src = patent US20230043863A1
